Tested on: Pseudomonas aeruginosa
Experiment: Antimicrobial activity against Pseudomonas aeruginosa ATCC 27853 assessed as reduction in bacterial growth incubated for 16 to 18 hrs by microdilution susceptibility test
Type: functional
Conditions: time 16-18 hrs
Bridge positions count the residues as written; N and C are the ends. Square brackets hold non-standard residues; d marks the D form. Triazole bridges read from a SMILES are 1,4-linked. Peptide text beside a SMILES is read from it. Lys(N3) = [N-]=[N+]=NCCCC[C@H](N)C(=O)O; Pra = C#CC[C@H](N)C(=O)O
The following compounds are shown together with reported MIC values.

Observe how each entry below is paired with its result.
CC(C)C[C@H](NC(=O)[C@@H]1CCC(=O)NCCCC[C@H](NC(=O)[C@H](CCCCN)NC(=O)[C@H](CO)NC(=O)[C@H](Cc2ccccc2)NC(=O)[C@H](Cc2c[nH]c3ccccc23)NC(=O)[C@@H]2CCCN2C(=O)[C@@H](NC(=O)[C@@H](N)Cc2ccccc2)C(C)C)C(=O)N[C@H](CC(C)C)C(=O)NCC(=O)N[C@@H](CCCNC(=N)N)C(=O)N1)C(N)=O (H-FVPWFSKK[dL]GREL-NH2; lactam 8-12)
> 100 µM
CC[C@H](C)[C@@H]1NC(=O)[C@H](CCCNC(=N)N)NC(=O)CNC(=O)[C@@H](CC(C)C)NC(=O)[C@H](Cc2ccccc2)NC(=O)[C@H](CCCCN)NC(=O)[C@@H](NC(=O)[C@H](Cc2ccccc2)NC(=O)[C@H](Cc2c[nH]c3ccccc23)NC(=O)[C@@H]2CCCN2C(=O)[C@@H](NC(=O)[C@@H](N)Cc2ccccc2)C(C)C)Cc2cn(nn2)CCCC[C@@H](C(N)=O)NC1=O (H-FVPWF[Pra]KF[dL]GRI[Lys(N3)]-NH2; triazole 6-13)
> 100 µM

As a next step, examine the compound that follows.
Short answer for CC[C@H](C)[C@H](NC(=O)[C@H](CCCNC(=N)N)NC(=O)CNC(=O)[C@H]1CCC(=O)NCCCC[C@H](NC(=O)[C@H](Cc2c[nH]c3ccccc23)NC(=O)[C@@H]2CCCN2C(=O)[C@@H](NC(=O)[C@@H](N)Cc2ccccc2)C(C)C)C(=O)N[C@@H](CO)C(=O)N[C@@H](CCCCN)C(=O)N[C@@H](Cc2ccccc2)C(=O)N1)C(=O)N[C@@H](CC(C)C)C(N)=O (H-FVPWKSKF[dE]GRIL-NH2; lactam 5-9) : MIC was > 100 µM

###

Tested on: Staphylococcus aureus
Assay: Antimicrobial activity against Staphylococcus aureus ATCC 25923 assessed as reduction in bacterial growth incubated for 16 to 18 hrs by microdilution susceptibility test
Format: functional
Details: time 16-18 hrs
Bridge positions count the residues as written; N and C are the ends. Square brackets hold non-standard residues; d marks the D form. Triazole bridges read from a SMILES are 1,4-linked. Peptide text beside a SMILES is read from it. Lys(N3) = [N-]=[N+]=NCCCC[C@H](N)C(=O)O; Pra = C#CC[C@H](N)C(=O)O
value.kind: MIC

Observe how each entry below is paired with its result.
CC[C@H](C)[C@@H]1NC(=O)[C@H](CCCNC(=N)N)NC(=O)CNC(=O)[C@@H](CC(C)C)NC(=O)[C@H](Cc2ccccc2)NC(=O)[C@H](CCCCN)NC(=O)[C@@H](NC(=O)[C@H](Cc2ccccc2)NC(=O)[C@H](Cc2c[nH]c3ccccc23)NC(=O)[C@@H]2CCCN2C(=O)[C@@H](NC(=O)[C@@H](N)Cc2ccccc2)C(C)C)Cc2cn(nn2)CCCC[C@@H](C(N)=O)NC1=O (H-FVPWF[Pra]KF[dL]GRI[Lys(N3)]-NH2; triazole 6-13)
> 100 µM
CC(C)C[C@H](NC(=O)[C@@H]1CCC(=O)NCCCC[C@H](NC(=O)[C@H](CCCCN)NC(=O)[C@H](CO)NC(=O)[C@H](Cc2ccccc2)NC(=O)[C@H](Cc2c[nH]c3ccccc23)NC(=O)[C@@H]2CCCN2C(=O)[C@@H](NC(=O)[C@@H](N)Cc2ccccc2)C(C)C)C(=O)N[C@H](CC(C)C)C(=O)NCC(=O)N[C@@H](CCCNC(=N)N)C(=O)N1)C(N)=O (H-FVPWFSKK[dL]GREL-NH2; lactam 8-12)
> 100 µM

Short answer for CC(C)C[C@H](NC(=O)[C@@H]1CCC(=O)NCCCC[C@H](NC(=O)[C@H](Cc2c[nH]c3ccccc23)NC(=O)[C@@H]2CCCN2C(=O)[C@@H](NC(=O)[C@@H](N)Cc2ccccc2)C(C)C)C(=O)N[C@@H](CO)C(=O)N[C@@H](CCCCN)C(=O)N[C@@H](Cc2ccccc2)C(=O)N[C@H](CC(C)C)C(=O)NCC(=O)N[C@@H](CCCNC(=N)N)C(=O)N1)C(N)=O (H-FVPWKSKF[dL]GREL-NH2; lactam 5-12) : MIC was > 100 µM

###

Tested on: Escherichia coli
Experiment: Antimicrobial activity against Escherichia coli ATCC 25922 assessed as reduction in bacterial growth incubated for 16 to 18 hrs by microdilution susceptibility test
Assay type: functional
Details: time 16-18 hrs
Bridge positions count the residues as written; N and C are the ends. Square brackets hold non-standard residues; d marks the D form. Triazole bridges read from a SMILES are 1,4-linked. Peptide text beside a SMILES is read from it. dLys(N3) = [N-]=[N+]=NCCCC[C@@H](N)C(=O)O; Pra = C#CC[C@H](N)C(=O)O
The following compounds are shown together with reported MIC values.
Output spec: scalar in µM, unitless text.

CC[C@H](C)[C@H](NC(=O)[C@H](CCCNC(=N)N)NC(=O)CNC(=O)[C@H]1CCCCn2cc(nn2)C[C@H](NC(=O)[C@H](Cc2c[nH]c3ccccc23)NC(=O)[C@@H]2CCCN2C(=O)[C@@H](NC(=O)[C@@H](N)Cc2ccccc2)C(C)C)C(=O)N[C@@H](CO)C(=O)N[C@@H](CCCCN)C(=O)N[C@@H](Cc2ccccc2)C(=O)N1)C(=O)N[C@@H](CC(C)C)C(N)=O (H-FVPW[Pra]SKF[dLys(N3)]GRIL-NH2; triazole 5-9)
100

As a next step, examine the compound that follows.
Short answer for CC[C@H](C)[C@H](NC(=O)[C@H](CCCNC(=N)N)NC(=O)[C@@H]1CCCCNC(=O)CC[C@H](NC(=O)[C@H](Cc2ccccc2)NC(=O)[C@H](Cc2c[nH]c3ccccc23)NC(=O)[C@@H]2CCCN2C(=O)[C@@H](NC(=O)[C@@H](N)Cc2ccccc2)C(C)C)C(=O)N[C@@H](CCCCN)C(=O)N[C@@H](Cc2ccccc2)C(=O)N[C@H](CC(C)C)C(=O)N1)C(=O)N[C@@H](CC(C)C)C(N)=O (H-FVPWFEKF[dL]KRIL-NH2; lactam 6-10) : MIC was 25

###

The following compounds are shown together with reported MIC values.
Test system: Staphylococcus aureus
Test: Antimicrobial activity against Staphylococcus aureus ATCC 25923 assessed as reduction in bacterial growth incubated for 16 to 18 hrs by microdilution susceptibility test
Format: functional
Conditions: time 16-18 hrs
Bridge positions count the residues as written; N and C are the ends. Square brackets hold non-standard residues; d marks the D form. Peptide text beside a SMILES is read from it.

Observe how each entry below is paired with its result.
CC[C@H](C)[C@H](NC(=O)[C@H](CCCNC(=N)N)NC(=O)[C@@H]1CSSC[C@H](NC(=O)[C@H](Cc2ccccc2)NC(=O)[C@H](Cc2c[nH]c3ccccc23)NC(=O)[C@@H]2CCCN2C(=O)[C@@H](NC(=O)[C@@H](N)Cc2ccccc2)C(C)C)C(=O)N[C@@H](CCCCN)C(=O)N[C@@H](Cc2ccccc2)C(=O)N[C@H](CC(C)C)C(=O)N1)C(=O)N[C@@H](CC(C)C)C(N)=O (H-FVPWFCKF[dL]CRIL-NH2; disulfide 6-10)
100 µM
CC[C@H](C)[C@@H]1NC(=O)[C@H](CCCNC(=N)N)NC(=O)CNC(=O)[C@@H](CC(C)C)NC(=O)[C@H](Cc2ccccc2)NC(=O)[C@H](CCCCN)NC(=O)[C@@H](NC(=O)[C@H](Cc2ccccc2)NC(=O)[C@H](Cc2c[nH]c3ccccc23)NC(=O)[C@@H]2CCCN2C(=O)[C@@H](NC(=O)[C@@H](N)Cc2ccccc2)C(C)C)CCCCNC(=O)CC[C@@H](C(N)=O)NC1=O (H-FVPWFKKF[dL]GRIE-NH2; lactam 6-13)
> 100 µM
CCC(C)[C@H](NC(=O)[C@H](CCCNC(=N)N)NC(=O)[C@]1(C)CCC/C=C/CCC[C@](C)(NC(=O)[C@H](Cc2ccccc2)NC(=O)[C@H](Cc2c[nH]c3ccccc23)NC(=O)[C@@H]2CCCN2C(=O)[C@@H](NC(=O)[C@@H](N)Cc2ccccc2)C(C)C)C(=O)N[C@@H](CCCCN)C(=O)N[C@@H](Cc2ccccc2)C(=O)N[C@H](CC(C)C)C(=O)N1)C(=O)N[C@@H](CC(C)C)C(N)=O (stereo not given in full)
> 100 µM

Short answer for CC[C@H](C)[C@H](NC(=O)[C@H](CCCNC(=N)N)NC(=O)CNC(=O)[C@@H](CC(C)C)NC(=O)[C@@H]1CCC(=O)NCCCC[C@H](NC(=O)[C@@H]2CCCN2C(=O)[C@@H](NC(=O)[C@@H](N)Cc2ccccc2)C(C)C)C(=O)N[C@@H](Cc2ccccc2)C(=O)N[C@@H](CO)C(=O)N[C@@H](CCCCN)C(=O)N1)C(=O)N[C@@H](CC(C)C)C(N)=O (H-FVPKFSKE[dL]GRIL-NH2; lactam 4-8) : MIC was > 100 µM

Short answer for CC[C@H](C)[C@H](NC(=O)[C@H](CCCNC(=N)N)NC(=O)CNC(=O)[C@H]1CCC(=O)NCCCC[C@H](NC(=O)[C@H](Cc2c[nH]c3ccccc23)NC(=O)[C@@H]2CCCN2C(=O)[C@@H](NC(=O)[C@@H](N)Cc2ccccc2)C(C)C)C(=O)N[C@@H](CO)C(=O)N[C@@H](CCCCN)C(=O)N[C@@H](Cc2ccccc2)C(=O)N1)C(=O)N[C@@H](CC(C)C)C(N)=O (H-FVPWKSKF[dE]GRIL-NH2; lactam 5-9) : MIC was > 100 µM
